Measured Target: ATX (Homo sapiens (Human))
Procedure Summary: ATX enzyme inhibition assay (Amplex UltraRed/choline oxidase/HRP, 16:0 Lyso PC substrate)
Assay type: biochemical
Test Parameters: assay buffer pH 7.5; read-out: IC50 (nM) pH 7.5
We'd kindly ask you to apply these IC50 classes: bin 0 (below 100 nM), bin 1 (100 nM to below 400 nM), bin 2 (400 nM or more)

Solved entries:
CN(c1nc(-c2ccc(F)cc2)c(C#N)s1)c1c2c(nc3ncc(N4CCN(CC(=O)N5CC(O)C5)CC4)cc13)CCC2    bin 1
CN(c1nc(-c2ccc(F)cc2)c(C#N)s1)c1c2c(nc3c(F)cc(N4CC5(CN(C(=O)[C@H]6CCOC6)C5)C4)cc13)CCO2    bin 0
CN(c1nc(-c2ccc(F)cc2)c(C#N)s1)c1c2c(nc3ccc(N4CCN(CC(=O)N5CC(O)C5)CC4)cc13)CC2    bin 0
CN(c1nc(-c2ccc(F)cc2)c(C#N)s1)c1c2c(nc3c(F)cc(N4CCN(C(=O)[C@H]5CCOC5)CC4)cc13)CCC2    bin 2
CN(c1nc(-c2ccc(F)cc2)c(C#N)s1)c1c2c(nc3c(F)cc(N4CCN(CC(=O)N5CC(O)C5)CC4)cc13)CCC2    bin 1
CN(c1nc(-c2ccc(F)cc2)c(C#N)s1)c1c2c(nc3c(F)cc(N4CCN(CC(=O)N5CC(O)C5)CC4)cc13)COC2    bin 2
CN(c1nc(-c2ccc(F)cc2)c(C#N)s1)c1c2c(nc3c(F)cc(N4CC5(CN(CC(=O)N6CC(O)C6)C5)C4)cc13)CCC2    bin 2
CN(c1nc(-c2ccc(F)cc2)c(C#N)s1)c1c2c(nc3c(F)cc(N4CC5(CN(C(=O)[C@@H]6CCOC6)C5)C4)cc13)CC2    bin 0

Which class is correct for the following compound? `CN(c1nc(-c2ccc(F)cc2)c(C#N)s1)c1c2c(nc3c(F)cc(N4CC5(CN(CC(=O)N6CC(CO)C6)C5)C4)cc13)CC2` bin 1

`CN(c1nc(-c2ccc(F)cc2)c(C#N)s1)c1c2c(nc3c(F)cc(N4CC5(CCN(CC(=O)N6CC(O)C6)CC5)C4)cc13)CCC2` ? bin 2

`CN(c1nc(-c2ccc(F)cc2)c(C#N)s1)c1c2c(nc3ccc(N4CC5(CN(C(=O)[C@H]6CCOC6)C5)C4)nc13)CCO2` ? bin 0

`CN(c1nc(-c2ccc(F)cc2)c(C#N)s1)c1c2c(nc3ccc(N4CCN(S(C)(=O)=O)C[C@H]4CO)cc13)CCC2` ? bin 1

`CN(c1nc(-c2ccc(F)cc2)c(C#N)s1)c1c2c(nc3c(F)cc(N4CCN(S(C)(=O)=O)[C@@H](CO)C4)cc13)CCC2` ? bin 2

###

Catalogue of IC50 readings, one per entry.
Measured Target: ATX (Homo sapiens (Human), UniProt Q13822)
Procedure Summary: ATX enzyme inhibition assay (Amplex UltraRed/choline oxidase/HRP, 16:0 Lyso PC substrate)
Assay type: biochemical
Test Parameters: assay buffer pH 8.5; read-out: IC50 (nM) pH 8.5
Write down the numeric answer in nM and omit the unit.

C[C@H]1CN(CC(=O)N2CC(O)C2)CCN1c1cc(F)c2nc3c(c(N(C)c4nc(-c5ccc(F)cc5)c(C#N)s4)c2c1)CC[C@@H]3O (single isomer, unassigned) [Example E7-a]    15.2
C[C@@H]1CN(c2cc(F)c3nc4c(c(N(C)c5nc(-c6ccc(F)cc6)c(C#N)s5)c3c2)CCC4O)CCN1CC(=O)N1CC(O)C1 (stereo partly drawn) [Example E9]    19.6

Pending compound:
Recorded IC50 of CN(c1nc(-c2ccc(F)cc2)c(C#N)s1)c1c2c(nc3c(F)cc(N4CC5(CN(C(=O)C6COCC6O)C5)C4)cc13)C(O)CC2 (stereo not drawn) [Example E20] , please. 23.5

###

Test system: plasma LPA 18:1 and LPA 18:2
Procedure Summary: Human plasma ex vivo assay (LPA 18:1 / 18:2 by LC-MS/MS)
Type: biochemical
Test Parameters: 37° C., 2 hours, LPA 18:1, read-out: Human plasma ex vivo assay IC50 (18:1 LPA)
Recorded Metric: pIC50
Field pIC50 (float): negative decimal logarithm of the concentration in molar.

CC(C)C(=O)N1CC2(C1)CN(c1cc(F)c3nc4c(c(N(C)c5nc(-c6ccc(F)cc6)c(C#N)s5)c3c1)CCC4O)C2 (centres unmarked)    6.18
CN(c1nc(-c2ccc(F)cc2)c(C#N)s1)c1c2c(nc3ccc(N4CCN(S(C)(=O)=O)C[C@H]4CO)cc13)CCC2    6.75
CN(c1nc(-c2ccc(F)cc2)c(C#N)s1)c1c2c(nc3c(F)cc(N4CCN(S(C)(=O)=O)[C@@H](CO)C4)cc13)CCC2    6.66

Under plasma LPA 18:1 and LPA 18:2: pIC50 value of `CN(c1nc(-c2ccc(F)cc2)c(C#N)s1)c1c2c(nc3c(F)cc(N4CC5(CN(C(=O)C(C)(C)O)C5)C4)cc13)CC2` ? 6.26

CN(c1nc(-c2ccc(F)cc2)c(C#N)s1)c1c2c(nc3c(F)cc(N4CCN(CC(=O)N5CC[C@H](O)C5)CC4)cc13)C(O)CC2 (some centres unmarked) ? 6.52

Cc1cc(N2CC3(CN(C(=O)C(C)(C)O)C3)C2)nc2c(N(C)c3nc(-c4ccc(F)cc4)c(C#N)s3)c3c(nc12)[C@@H](O)CC3 (single isomer, unassigned) ? 6.49

CN(c1nc(-c2ccc(F)cc2)c(C#N)s1)c1c2c(nc3c(F)cc(N4CC5(CN(C(=O)C(C)(C)O)C5)C4)nc13)C(O)CC2 (centres unmarked) ? 6.43

CN(c1nc(-c2ccc(F)cc2)c(C#N)s1)c1c2c(nc3c(F)cc(N4CC5(CN(C(=O)CN6CC[C@H](O)C6)C5)C4)cc13)C(O)CC2 (some centres unmarked) ? 6.53

`CN(c1nc(-c2ccc(F)cc2)c(C#N)s1)c1c2c(nc3c(F)cc(N4CCN(CC(=O)N5CC(O)C5)CC4)cc13)CCC2` ? 6.80

C[C@H]1CN(c2cc(F)c3nc4c(c(N(C)c5nc(-c6ccc(F)cc6)c(C#N)s5)c3c2)CCC4O)CCN1CC(=O)N1CC(O)C1 (some centres unmarked) ? 6.76

`CN(c1nc(-c2ccc(F)cc2)c(C#N)s1)c1c2c(nc3ccc(N4CCN(CC(=O)N5CC(O)C5)CC4)cc13)COC2` ? 7.07

###

System: plasma LPA 18:1 and LPA 18:2
Procedure Summary: Human plasma ex vivo assay (LPA 18:1 / 18:2 by LC-MS/MS)
Format: biochemical
Test Parameters: 37° C., 2 hours, LPA 18:1, read-out: Human plasma ex vivo assay IC50 (18:1 LPA)
Recorded Metric: IC50 (nM)
Write down the numeric answer in nM and omit the unit.

CN(c1nc(-c2ccc(F)cc2)c(C#N)s1)c1c2c(nc3c(F)cc(N4CC5(CN(C(=O)CN6CC(O)C6)C5)C4)cc13)C(O)CC2 (stereo not drawn)    437
CN(c1nc(-c2ccc(F)cc2)c(C#N)s1)c1c2c(nc3c(F)cc(N4CC5(CN(C(=O)C(C)(C)O)C5)C4)cc13)C(O)CC2 (stereo not drawn)    410

Pending compound:
Recorded IC50 of `CN(c1nc(-c2ccc(F)cc2)c(C#N)s1)c1c2c(nc3c(F)cc(N4CCN(S(C)(=O)=O)[C@H](CO)C4)cc13)CCC2` , please. 170

###

Catalogue of log10 of IC50 readings, one per entry.
Test system: plasma LPA 18:1 and LPA 18:2
Procedure Summary: Human plasma ex vivo assay (LPA 18:1 / 18:2 by LC-MS/MS)
Type: biochemical
Test Parameters: 37° C., 2 hours, LPA 18:1, read-out: Human plasma ex vivo assay IC50 (18:1 LPA)
The figures below represent log10 of IC50, where IC50 is stated in nM.

Example molecules with recorded log10 of IC50:
CN(c1nc(-c2ccc(F)cc2)c(C#N)s1)c1c2c(nc3c(F)cc(N4CCC5(CCN(C(=O)[C@@H]6CCOC6)C5)C4)cc13)CCC2 (stereo partly drawn) [Example C14]    2.49
CN(c1nc(-c2ccc(F)cc2)c(C#N)s1)c1c2c(nc3c(F)cc(N4CC5(CN(C(=O)[C@H]6CCCO6)C5)C4)cc13)C(O)CC2 (stereo partly drawn) [Example E61]    2.77
CN(c1nc(-c2ccc(F)cc2)c(C#N)s1)c1c2c(nc3c(F)cc(N4CCC5(CCN(CC(=O)N6CC(O)C6)CC5)C4)cc13)C(O)CC2 (stereo not drawn) [Example E48]    2.87
CN(c1nc(-c2ccc(F)cc2)c(C#N)s1)c1c2c(nc3ncc(N4CCN(CC(=O)N5CC(O)C5)CC4)cc13)CCC2 [Example A21]    1.85
CN(c1nc(-c2ccc(F)cc2)c(C#N)s1)c1c2c(nc3c(F)cc(N4CC5(CN(C(=O)C6(C)CCOC6)C5)C4)cc13)C(O)CC2 (stereo not drawn) [Example E59]    2.38
CN(c1nc(-c2ccc(F)cc2)c(C#N)s1)c1c2c(nc3c(F)cc(N4CC5(CN(C(=O)[C@]6(O)CCOC6)C5)C4)cc13)[C@H](O)CC2 (single isomer, unassigned) [Example E19-1a]    2.32

Recorded log10 of IC50 of CN(c1nc(-c2ccc(F)cc2)c(C#N)s1)c1c2c(nc3c(F)cc(N4CCN(CC(=O)N5CC(F)C5)CC4)cc13)CCC2 [Example A16] , please. 2.46

CN(c1nc(-c2ccc(F)cc2)c(C#N)s1)c1c2c(nc3c(F)cc(N4CC5(CN(CC(=O)N6CC(O)C6)C5)C4)cc13)CCC2 [Example A9] ? 2.55

Cc1cc(N2CC3(CN(C(=O)C(C)(C)O)C3)C2)nc2c(N(C)c3nc(-c4ccc(F)cc4)c(C#N)s3)c3c(nc12)[C@](C)(O)CC3 (single isomer, unassigned) [Example E25-a] ? 2.57

CC(C(=O)N1CC(O)C1)N1CCN(c2cc(F)c3nc4c(c(N(C)c5nc(-c6ccc(F)cc6)c(C#N)s5)c3c2)CCC4O)CC1 (stereo not drawn) [Example E33] ? 2.51

CCc1nc2c(C)cc(N3CCN(CC(=O)N4CC(O)C4)CC3)cn2c1N(C)c1nc(-c2ccc(F)cc2)c(C#N)s1 [GLPG1690, reference compound] ? 2.67

Cc1cc(N2CCN(CC(=O)N3CC(O)C3)CC2)cc2c(N(C)c3nc(-c4ccc(F)cc4)c(C#N)s3)c3c(nc12)CCC3 [Example A14] ? 2.48
